# System tested: Gal(b1-4)GlcNAc(b1-2)Man(a1-3)[GlcNAc(b1-2)Man(a1-6)]Man(b1-4)GlcNAc(b1-4)GlcNAc
# Method description: glycan array binding signal (z-score within array); higher = stronger binding
# Condition context: glycan notation: IUPAC condensed, linker removed
The entries come from a sample that favours the strongest signals as a whole.
Parameter glycan array binding signal (z-score): see the listing below.

| Binder | glycan array binding signal (z-score) |
| --- | --- |
| Strep tagII-anxA1 (Homo sapiens), P04083 (protein) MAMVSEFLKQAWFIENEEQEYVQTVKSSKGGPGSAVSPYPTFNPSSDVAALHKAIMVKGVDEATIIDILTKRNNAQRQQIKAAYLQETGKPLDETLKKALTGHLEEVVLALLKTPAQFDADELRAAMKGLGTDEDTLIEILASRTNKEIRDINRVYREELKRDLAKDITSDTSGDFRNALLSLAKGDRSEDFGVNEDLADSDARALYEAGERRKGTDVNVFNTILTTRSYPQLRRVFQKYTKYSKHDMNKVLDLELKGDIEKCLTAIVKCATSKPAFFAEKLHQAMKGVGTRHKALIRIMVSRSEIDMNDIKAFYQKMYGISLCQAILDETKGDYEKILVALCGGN | -0.567 |
| Mincle (Homo sapiens), Q9ULY5 (protein) MNSSKSSETQCTERGCFSSQMFLWTVAGIPILFLSACFITRCVVTFRIFQTCDEKKFQLPENFTELSCYNYGSGSVKNCCPLNWEYFQSSCYFFSTDTISWALSLKNCSAMGAHLVVINSQEEQEFLSYKKPKMREFFIGLSDQVVEGQWQWVDGTPLTKSLSFWDVGEPNNIATLEDCATMRDSSNPRQNWNDVTCFLNYFRICEMVGINPLNKGKSL | 0.969 |
